# test: Cytotoxicity against human BEAS-2B cells assessed as cell growth inhibition
# Type: toxicity, cell-based
pIC50: −log10 of the molar value.
measured-parameter: pIC50

Solved cases below.
COc1c(O)c(CN2CCN(S(=O)(=O)c3ccc(Br)cc3)CC2)c2c(c1O)C1O[C@H](CO)[C@@H](O)[C@H](O)C1OC2=O (stereo partly drawn): 4.65
COc1c(O)c(CN2CCN(S(=O)(=O)c3ccc(F)c(F)c3F)CC2)c2c(c1O)C1O[C@H](CO)[C@@H](O)[C@H](O)C1OC2=O (stereo partly drawn): < 4.00
COc1c(O)c(CN2CCN(CC(=O)Nc3nc(-c4ccc5ccccc5c4)cs3)CC2)c2c(c1O)C1O[C@H](CO)[C@@H](O)[C@H](O)C1OC2=O (stereo partly drawn): < 4.00
COc1c(O)c(CN2CCN(S(=O)(=O)c3cccc4ccccc34)CC2)c2c(c1O)C1O[C@H](CO)[C@@H](O)[C@H](O)C1OC2=O (stereo partly drawn): < 4.00
CCOc1ccc2nc(NC(=O)CN3CCN(Cc4c(O)c(OC)c(O)c5c4C(=O)OC4C5O[C@H](CO)[C@@H](O)[C@@H]4O)CC3)sc2c1 (stereo partly drawn): < 4.00
COc1c(O)c(CN2CCN(S(=O)(=O)c3ccc(OC(F)(F)F)cc3)CC2)c2c(c1O)C1O[C@H](CO)[C@@H](O)[C@H](O)C1OC2=O (stereo partly drawn): < 4.00
COc1c(O)c(CN2CCN(S(=O)(=O)c3ccccc3)CC2)c2c(c1O)C1O[C@H](CO)[C@@H](O)[C@H](O)C1OC2=O (stereo partly drawn): < 4.00
COc1cccc2c1C(=O)c1c(O)c3c(c(O)c1C2=O)C[C@@](O)(C(=O)CO)C[C@@H]3O[C@H]1C[C@H](N)[C@H](O)[C@H](C)O1: 6.10

// lookup pIC50 for COc1c(O)c(CN2CCN(S(=O)(=O)c3ccc(C)cc3)CC2)c2c(c1O)C1O[C@H](CO)[C@@H](O)[C@H](O)C1OC2=O (stereo partly drawn) 4.29

Request the reported pIC50 associated with COc1c(O)c(CN2CCN(CC(=O)Nc3nc(-c4ccccc4)cs3)CC2)c2c(c1O)C1O[C@H](CO)[C@@H](O)[C@H](O)C1OC2=O (stereo partly drawn) < 4.00

What measured pIC50 goes with COc1c(O)c(CN2CCN(CC(=O)Nc3nc4c(C)cccc4s3)CC2)c2c(c1O)C1O[C@H](CO)[C@@H](O)[C@H](O)C1OC2=O (stereo partly drawn) ? < 4.00

Please give the measured pIC50 for this molecule: COc1c(O)c(CN2CCN(CC(=O)Nc3nc4ccc([N+](=O)[O-])cc4s3)CC2)c2c(c1O)C1O[C@H](CO)[C@@H](O)[C@H](O)C1OC2=O (stereo partly drawn) 4.23

Any idea what pIC50 was measured for COc1c(O)c(CN2CCN(CC(=O)Nc3nc4ccc(F)cc4s3)CC2)c2c(c1O)C1O[C@H](CO)[C@@H](O)[C@H](O)C1OC2=O (stereo partly drawn) ? < 4.00
